Biological target: Retinal dehydrogenase 2 (Homo sapiens) (UniProt O94788)
Assay: qHTS for Inhibitors of the Aldehyde Dehydrogenase Family (ALDH1A2) Confirmation screens (AID 2061314); note: nearly all actives have a fitted effect of over 65% in size
Conditions: ALDH1A2 enzyme inhibition qHTS confirmation; series mostly up to 45.9 µM
Inconclusive results are not listed. Active and inactive are the calls of the source. Calls come from the whole dose curve; as a rule, active = well fitted inhibition curve with a large enough effect; inconclusive = small, poorly fitted or top-dose-only effect; inactive = no such curve, though single readings can be large or run the other way.
In this exercise, the only acceptable responses are y = active, n = inactive

Example entries and their recorded answers appear below.
Compound	Assay Target	Label Value
Cc1ccc(C(=O)NCC(c2ccc3c(c2)OCO3)N2CCN(c3ccc(F)cc3)CC2)cc1 (stereo not given)	Retinal dehydrogenase 2 (Homo sapiens) (UniProt O94788)	n
CCOC(=O)c1c(-c2ccc(C)o2)csc1NC(=O)CSc1nnnn1-c1ccccc1	Retinal dehydrogenase 2 (Homo sapiens) (UniProt O94788)	y
O=C(N/N=C/c1ccc(Sc2ccccn2)o1)c1ccccc1	Retinal dehydrogenase 2 (Homo sapiens) (UniProt O94788)	n
Cc1ccc(S(=O)(=O)c2ncccc2[N+](=O)[O-])cc1	Retinal dehydrogenase 2 (Homo sapiens) (UniProt O94788)	y

API: the following record is the query input.
Look up the recorded call for COc1ccc(CNC(=O)c2cc3c(=O)n(Cc4ccc(OC)cc4)ccc3nc2C)cc1 in this test.
n

Data provenance: PubChem BioAssay (NCATS)
